# tested_on: Sphingosine kinase 1 (Homo sapiens, UniProt Q9NYA1)
# Sequence (Q9NYA1 whole entry): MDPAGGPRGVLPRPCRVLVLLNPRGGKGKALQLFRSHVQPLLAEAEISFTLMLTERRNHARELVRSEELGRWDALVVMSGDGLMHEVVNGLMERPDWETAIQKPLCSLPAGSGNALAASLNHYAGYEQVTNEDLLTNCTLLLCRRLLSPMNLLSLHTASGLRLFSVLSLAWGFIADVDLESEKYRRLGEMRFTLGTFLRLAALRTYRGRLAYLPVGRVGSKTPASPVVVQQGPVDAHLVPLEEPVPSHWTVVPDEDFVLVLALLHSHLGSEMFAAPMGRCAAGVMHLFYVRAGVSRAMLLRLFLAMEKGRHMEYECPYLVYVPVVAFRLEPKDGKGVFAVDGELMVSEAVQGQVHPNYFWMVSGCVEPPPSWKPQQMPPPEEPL
# assay_explanation: Inhibition of SPHK1 in human MDA1483 cells using C17-sphingosine as substrate assessed as reduction in C17-S1P formation preincubated for 30 mins with substrate measured after 15 mins by LC-MS analysis
# Type: cell-based
pIC50: −log10 of the molar value.
measurement_kind: pIC50

Use these answered entries as a reference point.
>  <smiles_str>
CC(C)c1cccc(OCc2ccc(CN3CCC[C@@H]3CO)cc2)c1

>  <tested_on>
Sphingosine kinase 1 (Homo sapiens, UniProt Q9NYA1)

>  <number>
9.22

$$$$
>  <smiles_str>
Cc1cc(CS(=O)(=O)c2ccccc2)cc(OCc2ccc(CNCCO)cc2)c1

>  <tested_on>
Sphingosine kinase 1 (Homo sapiens, UniProt Q9NYA1)

>  <number>
8.46

$$$$
>  <smiles_str>
Cc1nc2ccc(-c3ccc(CN4CCC[C@@H]4CO)cc3)cc2n1CC(C)C

>  <tested_on>
Sphingosine kinase 1 (Homo sapiens, UniProt Q9NYA1)

>  <number>
6.36

$$$$
>  <smiles_str>
CS(=O)(=O)Cc1cccc(OCc2ccc(CN3CCC[C@@H]3CO)cc2)c1

>  <tested_on>
Sphingosine kinase 1 (Homo sapiens, UniProt Q9NYA1)

>  <number>
6.28

$$$$
>  <smiles_str>
O=S(=O)(Cc1cccc(OCc2ccc(CN3CCC[C@@H]3CO)cc2)c1)C1CC1

>  <tested_on>
Sphingosine kinase 1 (Homo sapiens, UniProt Q9NYA1)

>  <number>
8.77

$$$$
>  <smiles_str>
O=C(Nc1cccc(OCc2ccc(CN3CCC[C@@H]3CO)cc2)c1)c1ccccc1

>  <tested_on>
Sphingosine kinase 1 (Homo sapiens, UniProt Q9NYA1)

>  <number>
5.92

$$$$
>  <smiles_str>
Cc1cc(CS(=O)(=O)c2ccccc2)cc(OCc2ccc(CN3CC[C@@H](O)C3)cc2)c1

>  <tested_on>
Sphingosine kinase 1 (Homo sapiens, UniProt Q9NYA1)

>  <number>
7.52

$$$$

P: Cc1nc2ccc(-c3ccc(CN4CCC[C@@H]4CO)cc3)cc2n1C[C@@H]1CCCO1
Q: Cc1nc2ccc(-c3ccc(CN4CCC[C@@H]4CO)cc3)cc2n1CCC(C)C
R: Cc1cc(CS(=O)(=O)c2ccccc2)cc(OCc2ccc(CN3C[C@@H](O)[C@@H](O)C3)cc2)c1
Query: Returns the items ordered by pIC50, from maximum to minimum. Reply with the item labels sorted in the order that was asked for.
Response: R, Q, P

====

# tested_on: Sphingosine 1-phosphate receptor 3 (Homo sapiens)
# Sequence (Q99500 whole entry): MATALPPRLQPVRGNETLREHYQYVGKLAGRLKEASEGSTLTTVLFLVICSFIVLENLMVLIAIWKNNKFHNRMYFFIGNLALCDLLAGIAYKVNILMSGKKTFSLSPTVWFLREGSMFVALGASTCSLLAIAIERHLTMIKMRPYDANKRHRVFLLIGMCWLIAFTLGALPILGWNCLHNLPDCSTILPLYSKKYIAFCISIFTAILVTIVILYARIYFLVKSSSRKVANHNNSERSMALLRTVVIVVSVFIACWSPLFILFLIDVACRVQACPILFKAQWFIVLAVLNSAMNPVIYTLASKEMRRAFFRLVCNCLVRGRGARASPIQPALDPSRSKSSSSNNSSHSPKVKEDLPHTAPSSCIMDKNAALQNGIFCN
pIC50: −log10 of the molar value.
measurement_kind: pIC50

Query: Returns the measured pIC50 for the input molecule. Input: Cc1cc(CS(=O)(=O)c2ccccc2)cc(OCc2ccc3[nH]c(N)nc3c2)c1
Response: < 5.00

====

# tested_on: Sphingosine kinase 2 (Homo sapiens, UniProt Q9NRA0)
# Sequence (Q9NRA0 whole entry): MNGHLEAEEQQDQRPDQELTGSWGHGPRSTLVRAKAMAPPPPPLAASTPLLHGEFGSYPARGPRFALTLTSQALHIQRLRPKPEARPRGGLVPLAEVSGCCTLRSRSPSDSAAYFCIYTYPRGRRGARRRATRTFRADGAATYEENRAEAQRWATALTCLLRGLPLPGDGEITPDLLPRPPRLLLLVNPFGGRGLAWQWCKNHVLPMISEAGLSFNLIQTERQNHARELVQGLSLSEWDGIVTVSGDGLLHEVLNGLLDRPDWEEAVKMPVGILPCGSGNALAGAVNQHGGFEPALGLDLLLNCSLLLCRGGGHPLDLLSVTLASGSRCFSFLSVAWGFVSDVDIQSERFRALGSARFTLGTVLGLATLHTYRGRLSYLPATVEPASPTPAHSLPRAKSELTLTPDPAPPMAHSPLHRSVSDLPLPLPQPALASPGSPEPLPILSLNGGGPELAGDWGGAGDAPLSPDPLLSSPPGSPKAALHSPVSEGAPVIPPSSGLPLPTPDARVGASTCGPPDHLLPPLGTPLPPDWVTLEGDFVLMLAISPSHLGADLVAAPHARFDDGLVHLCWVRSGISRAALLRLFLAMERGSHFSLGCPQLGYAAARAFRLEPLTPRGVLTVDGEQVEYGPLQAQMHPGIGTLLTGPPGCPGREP
pIC50: −log10 of the molar value.
measurement_kind: pIC50

>  <smiles_str>
Cc1cc(CS(=O)(=O)c2ccccc2)cc(OCc2ccc(CN3CC[C@H](O)C3)cc2)c1

>  <number>
6.35

$$$$
>  <smiles_str>
Cc1cc(CS(=O)(=O)c2ccccc2)cc(OCc2ccc(CN3C[C@@H](O)[C@H](O)C3)cc2)c1

>  <number>
6.33

$$$$
>  <smiles_str>
O=C(Nc1cccc(OCc2ccc(CN3CCC[C@@H]3CO)cc2)c1)c1ccccc1

>  <number>
6.84

$$$$

A: O=S(=O)(Cc1cccc(OCc2ccc(CN3CCC[C@@H]3CO)cc2)c1)C1CC1
B: Cc1cc(CS(=O)(=O)c2ccccc2)cc(OCc2ccc3[nH]c(N)nc3c2)c1
Query: # compare pIC50 for A vs B ; return the one with the smaller value # answer = label of selected item
Response: B
(B: 4.40, A: 6.79)

====

# tested_on: Sphingosine kinase 1 (Homo sapiens, UniProt Q9NYA1)
# assay_explanation: Inhibition of human C-terminal His6-tagged SPHK1 expressed in fall armyworm sf9 cells assessed as reduction in S1P formation using sphingosine as substrate after 1 hr by FITC-based caliper assay
pIC50: −log10 of the molar value.
measurement_kind: pIC50

A: Cc1cc(CS(=O)(=O)c2ccccc2)cc(OCc2ccc(CN3C[C@@H](O)[C@@H](O)C3)cc2)c1
B: O=S(=O)(Cc1cccc(OCc2ccc(CN3CCC[C@@H]3CO)cc2)c1)C1CC1
C: Cc1nc(-c2cccc(OCc3ccc(CN4CCC[C@@H]4CO)cc3)c2)no1
D: Cc1cc(CS(=O)(=O)c2ccccc2)cc(OCc2ccc(CN3C[C@@H](O)[C@H](O)C3)cc2)c1
Query: Task field, ranking: reported pIC50, descending order. Could you list the labels in the order requested?
Response: D, A, C, B
(D: 8.70, A: 8.41, C: 7.60, B: 7.39)

A: Cc1nc2ccc(-c3ccc(CN4CCC[C@@H]4CO)cc3)cc2n1C[C@H]1CCCO1
B: CC(C)c1cccc(OCc2ccc(CN3CCC[C@@H]3CO)cc2)c1
Query: Compare pIC50: is it lower for A or for B ? # answer = label of selected item
Response: A

====

# tested_on: Sphingosine kinase 1 (Homo sapiens, UniProt Q9NYA1, S225A)
# Sequence (Q9NYA1 whole entry S225A): as the sequence (Q9NYA1 whole entry) above, with S225A counted along it
# assay_explanation: Binding affinity to human C-terminal His6-tagged SPHK1 S225A mutant expressed in fall armyworm sf9 cells after 1 hr by ITC analysis
measurement_kind: Kd (µM)

1: Cc1nc2ccc(-c3ccc(CN4CCC[C@@H]4CO)cc3)cc2n1C[C@@H]1CCCO1
2: Cc1nc2ccc(-c3ccc(CN4CCC[C@@H]4CO)cc3)cc2n1C[C@H]1CCCO1
Query: Of 1 and 2 , whose reported Kd is the larger number? Could you answer with the label of the item you picked?
Response: 1

====

# tested_on: Sphingosine kinase 1 (Homo sapiens, UniProt Q9NYA1)
# assay_explanation: Inhibition of human C-terminal His6-tagged SPHK1 expressed in fall armyworm sf9 cells assessed as reduction in ADP formation using sphingosine as substrate preincubated for 15 mins followed by substrate addition after 1 hr by transcreener-based fluorescence polarization assay
measurement_kind: IC50 (nM)

A: Cc1nc2ccc(-c3ccc(CN4CCC[C@@H]4CO)cc3)cc2n1C[C@@H]1CCCO1
B: Cc1cc(CS(=O)(=O)c2ccccc2)cc(OCc2ccc(CNCCO)cc2)c1
C: CS(=O)(=O)Cc1cccc(OCc2ccc(CN3CCC[C@@H]3CO)cc2)c1
Query: Order the 3 listed items from lowest to highest according to IC50. Output spec: labels arranged per the requested ranking.
Response: B, C, A

====

# tested_on: Sphingosine kinase 1 (Homo sapiens, UniProt Q9NYA1)
# assay_explanation: Inhibition of SPHK1 in human MDA1483 cells using C17-sphingosine as substrate assessed as reduction in C17-S1P formation preincubated for 30 mins with substrate measured after 15 mins by LC-MS analysis
# Assay type: cell-based
pIC50: −log10 of the molar value.
measurement_kind: pIC50

P: Cc1nc2ccc(-c3ccc(CN4CCC[C@@H]4CO)cc3)cc2n1CC1CCCC1
Q: Cc1nc2ccc(-c3ccc(CN4CCC[C@@H]4CO)cc3)cc2n1C[C@H]1CCCO1
R: Cc1nc2ccc(-c3ccc(CN4CCC[C@@H]4CO)cc3)cc2n1Cc1ccccc1
Query: Sort these compounds on pIC50 so the largest reading comes first. Enter labels, ranked according to the request.
Response: P, Q, R
(P: 8.00, Q: 7.09, R: 6.60)

====

# tested_on: Sphingosine kinase 1 (Homo sapiens)
# assay_explanation: Inhibition of human C-terminal His6-tagged SPHK1 expressed in fall armyworm sf9 cells assessed as reduction in S1P formation using sphingosine as substrate after 1 hr by FITC-based caliper assay
measurement_kind: IC50 (nM)

Example results:
>  <smiles_str>
Cc1cc(CS(=O)(=O)c2ccccc2)cc(OCc2ccc(CNCCO)cc2)c1

>  <IC50 (nM)>
14.6

$$$$
>  <smiles_str>
Cc1nc2ccc(-c3ccc(CN4CCC[C@@H]4CO)cc3)cc2n1C[C@@H]1CCCO1

>  <IC50 (nM)>
12700

$$$$
>  <smiles_str>
Cc1cc(CS(=O)(=O)c2ccccc2)cc(OCc2ccc(CN3CC[C@H](O)C3)cc2)c1

>  <IC50 (nM)>
2.6

$$$$

P: Cc1cc(CS(=O)(=O)c2ccccc2)cc(OCc2ccc3[nH]c(N)nc3c2)c1
Q: Cc1cc(CS(=O)(=O)c2ccccc2)cc(OCc2ccc3[nH]cnc3c2)c1
R: O=S(=O)(Cc1cccc(OCc2ccc(CN3CCC[C@@H]3CO)cc2)c1)c1ccccc1
S: O=C(Nc1cccc(OCc2ccc(CN3CCC[C@@H]3CO)cc2)c1)c1ccccc1
Query: Rank the 4 compounds: largest IC50 first, smallest last. Quick reminder: the answer is the labels in the order asked.
Response: Q, S, P, R
(Q: 48000 nM, S: 9820 nM, P: 1400 nM, R: 2.4 nM)
